methodSummary: Compound was evaluated for its rate constant (Kp) which are average values of Kobs measured in the pH range 10-11 at 25 degree C (micro = 0.5 M ).
Format: ADME
metricName: Kp (s⁻¹)

Please report the measured Kp for "COc1ccc(OC(=O)Nc2cc(Cl)ccc2O)cc1" 0.0976

Provide Kp value for the following molecule: "C#CCOC(=O)Nc1cc(Cl)ccc1O" 0.00025

Consider the molecule "CC(=O)Nc1ccc(OC(=O)Nc2ccc(C(=O)c3ccccc3)cc2O)cc1" . State its measured Kp. 0.119

I = O=C(Nc1cc(Cl)ccc1O)OCC(F)(F)F
II = CC(=O)Nc1cccc(OC(=O)Nc2cc(Cl)ccc2O)c1
Of I and II , whose reported Kp is the larger number? Give the label under which the chosen entry appears. II
(II: 0.279 s⁻¹, I: 0.014 s⁻¹)
